Test system: MDA-MB-435
Test: NCI tumour cell line growth inhibition, 48 h
Calls of active or inactive are those of the source. Rule as the data show it: active = GI50 up to about 1.1 µM and inactive = higher.
measurement_kind: GI50

Prompt line: May I ask what GI50 has been recorded for CCOC(=O)CCCn1nnc(C(=O)OCC)c1C(=O)OCC ?
Response line: > 100 µM (inactive)

Prompt line: Subsequent entry: CCCCCCCCC/C=C1/CC(CO)(COC(=O)c2ccccc2)OC1=O (configuration not stated)
Response line: 11.1 µM (inactive)

Prompt line: And the next one, O=C1C/C(=C\c2ccccc2)C(=O)c2ccccc2N1 ?
Response line: 23.3 µM (inactive)

Prompt line: And then C/C(Cl)=N/OC(=O)Nc1ccc(S(N)(=O)=O)c(C)c1 , what is it?
Response line: 15.1 µM (inactive)

Prompt line: Please do the same for O=C1c2ccccc2CCC1C(O)(C(F)(F)F)C(F)(F)F (configuration not stated) as well.
Response line: > 100 µM (inactive)

Prompt line: Okay, and O=C(O)C(Sc1ccc(Cl)cc1)Sc1ccc(Cl)cc1 ?
Response line: 43.1 µM (inactive)

Prompt line: Also, O=C(Nc1nc(C23CC4CC(CC(C4)C2)C3)cs1)c1cc2cc(Cl)ccc2oc1=O please.
Response line: > 100 µM (inactive)

====

System: SK-OV-3
Experiment: NCI tumour cell line growth inhibition, 48 h
The source made the active and inactive calls. Cut-off read from the data, not from the text of the source: active = GI50 up to about 1.1 µM and inactive = higher.
Assignment: determine reported GI50 for the given compounds.

Prompt line: So what GI50 did O=C1CC(=O)N(c2ccccc2)N1/C(=C/c1ccccc1)c1ccccc1 get with SK-OV-3?
Response line: 25.6 µM (inactive)

Prompt line: Also CC(C)C1NC(=O)[C@H](C)OC(=O)[C@@H](C(C)C)NC(=O)[C@@H](C)OC(=O)C(C(C)C)NC(=O)[C@H](C)OC1=O (stereo not given in full) ?
Response line: > 100 µM (inactive)

Prompt line: What do we get for C/C(=N\NC(C)(C)C)c1sc(-c2nc(C)c(/C(C)=N/NC(C)(C)C)s2)nc1C ?
Response line: > 100 µM (inactive)

Prompt line: For C=C1C(C(=O)O)C1C(=O)O (stereo not given) then?
Response line: > 100 µM (inactive)

Prompt line: Next record, please: [N-]=[N+]=Nc1c(Cc2ccccc2)c(Cl)nc2ccccc12
Response line: 53 µM (inactive)

Prompt line: Moving on to the next compound: O=C(/C=C/c1ccccc1)Nc1ccccc1SCCCCl
Response line: 8.41 µM (inactive)

Prompt line: // repeat for O=C(O)CCCc1ccc(N(CCCl)CCCl)cc1 and report
Response line: 110 µM (inactive)

Prompt line: Do the same for c1nnc(NCNc2nncs2)s1 please
Response line: 23.7 µM (inactive)

Prompt line: Similarly, COC(=O)[C@]1(c2cc3ccccc3[nH]2)CC2CN(C(=O)OCc3ccccc3)C1C=C2OC (stereo not given in full) ?
Response line: 36.9 µM (inactive)

Prompt line: Another: COc1ccc([S+]([O-])Cc2cc(OC)c(OC)c(OC)c2)cc1 (stereo not given)
Response line: > 100 µM (inactive)

====

Tested on: SNB-75
Assay: NCI tumour cell line growth inhibition, 48 h
Structures can show the parent of a compound that is named as a salt. The source made the active and inactive calls. No stated cut-off is given here; in the data, active = GI50 up to about 1.1 µM and inactive = higher.
Answer each item with its documented GI50.

Prompt line: Enter reported GI50 observed with SNB-75 for CN(c1ccccc1)C1C(=O)N(c2ccccc2)C1/C=C/c1ccccc1 (stereo not given)
Response line: > 100 µM (inactive)

Prompt line: Try the compound CN[C@@H](C)[C@@H](O)c1ccccc1 [PSEUDOEPHEDRINE HYDROCHLORIDE]
Response line: > 100 µM (inactive)

Prompt line: What about COC(=O)C1=C(C(=O)OC)SC(=C2c3ccsc3-c3sccc32)S1 ?
Response line: 15.9 µM (inactive)

Prompt line: Cool, now CCOc1ccc([Se][Se]c2ccc(OCC)cc2)cc1
Response line: 96.4 µM (inactive)

Prompt line: Follow-up item: CC(C)(C)c1ccc2c(c1)CNCCNCc1cc(C(C)(C)C)ccc1OCC1(CO2)COc2ccc(C(C)(C)C)cc2CNCCNCc2cc(C(C)(C)C)ccc2OC1
Response line: 1.51 µM (inactive)

Prompt line: Can you check COCCNC(=O)C1C(=O)C(=O)N(CCOC)C1=O (stereo not given) next?
Response line: > 100 µM (inactive)

Prompt line: Next record, please: C=C(C(=O)O)[C@@H]1C[C@@H](OC(C)=O)[C@]2(C)CC/C=C(\C)CCC[C@H](C)[C@H](O)[C@@H]1O2
Response line: 74.8 µM (inactive)

Prompt line: What do you get for O=C(Nc1ccc(C(F)(F)F)cc1[N+](=O)[O-])c1cccnc1 ?
Response line: 3.72 µM (inactive)

Prompt line: Next up: CC1=NC(C(C)C)C(=O)O1 (stereo not given)
Response line: > 100 µM (inactive)

Prompt line: // query: CC(=O)NNc1nc(C)c(C(=O)/C=C/c2ccc(NC(C)=O)cc2)s1
Response line: > 100 µM (inactive)

====

Give GI50 for every item shown.
Test system: TK-10
Experiment: NCI tumour cell line growth inhibition, 48 h
The source made the active and inactive calls. Rule as the data show it: active = GI50 up to about 1.1 µM and inactive = higher.

Prompt line: Give its GI50 value. Item: COc1ccccc1C(C1=C(O)COC1=O)c1cc2c(cc1OC(C)=O)OCO2 (centres undefined)
Response line: > 100 µM (inactive)

Prompt line: And then N#CC1(c2ccccc2)CCN(C2(c3ccccc3)CCCCC2)CC1 , what is it?
Response line: > 100 µM (inactive)

Prompt line: Another compound: Clc1ccc(-c2cn3c(nc4ccccc43)c(/C=C/c3cccs3)n2)cc1
Response line: 86.1 µM (inactive)

Prompt line: Same for O=C(Nc1ccc(C(F)(F)F)cc1[N+](=O)[O-])c1cccnc1
Response line: 5.46 µM (inactive)

Prompt line: Try CCOC(=O)CCCn1nnc(C(=O)OCC)c1C(=O)OCC next.
Response line: > 100 µM (inactive)

Prompt line: What about this compound? C=C1C(=O)O[C@H]2[C@H]1[C@H](OC(=O)/C(C)=C\C)CC(=C)[C@@H]1[C@H](O)[C@H]3O[C@@]3(C)[C@@]12O [EUPATUNDIN]
Response line: > 100 µM (inactive)

Prompt line: For COc1cc2c(cc1OC)C(=O)/C(=C/c1ccc(Cl)cc1)CC2 then?
Response line: > 10 µM (inactive)

Prompt line: What do you have for Nc1n2nc(-c3ccccc3)sc2n[n+]1CC(=O)c1ccccc1 ?
Response line: 27.4 µM (inactive)

Prompt line: Then this compound: CCOC(=O)C(C(=O)c1ccccc1-c1ccccc1C(=O)O)=P(c1ccccc1)(c1ccccc1)c1ccccc1
Response line: 80.4 µM (inactive)

Prompt line: Also Cc1ccc(S(=O)(=O)N2CCN3C(=O)c4ccccc4C32c2ccc(F)cc2)cc1 (centres undefined) ?
Response line: > 100 µM (inactive)

Prompt line: Entry to check: O=C1N[C@@H]([C@H]2CC[C@H](Cl)CN2)C(=O)N[C@H]1[C@H]1CC[C@H](Cl)CN1
Response line: 4.42 µM (inactive)

Prompt line: Repeat with C[C@@H]1CC[C@@]2(C)OC(c3ccccc3)[C@H](CO)N2C1=O (some centres undefined)
Response line: > 100 µM (inactive)

Prompt line: Please do the same for O=C1N[C@@H]2c3c(Br)sc(Br)c3C(=O)[C@@H]2O1 as well.
Response line: 6 µM (inactive)

Prompt line: Repeat with NCCN1C(=O)C2C3c4ccccc4C(c4ccccc43)C2C1=O (centres undefined)
Response line: > 100 µM (inactive)

Prompt line: Repeat with Nc1ncnc2c1sc1nc3ccccc3n12
Response line: > 100 µM (inactive)

Prompt line: Proceed to CC1C2(C)OC(=N)C(C#N)(C(C)O2)C1(C#N)C#N (centres undefined)
Response line: 36.8 µM (inactive)

Prompt line: Ok, now O=C1/C(=C/Cc2ccco2)N=C(c2ccccc2)N1c1nc2ccc(Sc3ccccc3)cc2[nH]1
Response line: 35.4 µM (inactive)

Prompt line: Follow-up item: COc1cc(N(CCC#N)CCC#N)ccc1C(/N=N/c1cccc([N+](=O)[O-])c1)=N\NC(=O)c1ccc(C)cc1
Response line: 31.7 µM (inactive)

Prompt line: What do you get for C1=Cc2nc1c(-c1ccncc1)c1ccc([n-]1)c(-c1ccncc1)c1nc(c(-c3ccncc3)c3ccc([n-]3)c2-c2ccncc2)C=C1.[Zn+2] ?
Response line: > 100 µM (inactive)
